The measurements presented in this section are drawn from patent US20120237528A1.

- test-system: T1, recombinant extracellular domain (ECD) of human TF, amino acid 1-219 of the mature chain, C-terminal His6-tag (human, UniProt P13726 33-251)
- T1 construct: expressed in a mammalian system; used for ELISA and Biacore; biotinylated by NHS-ester for the Fab ELISA; also called His6-TF-ECD1-219; HumanTF1-219
- assay-procedure: Biacore
// values below are reported pKd
Friendly reminder that pKd comes from taking -log10 of the concentration in mol/L.

M1611 (antibody, V domains shown, complete MAb; FR4 is its own entry; also called H128/L3) VH: EVQLVQSGAEVKKPGESLRISCKGSGYTFGPYWIEWVRQMPGKGLEWMGDILPGSGYTTYSPSFQGHVTISADKSISTAYLQWSSLKASDTAMYYCARSGYYGNSGFAYWGQGTLVTVSS VL: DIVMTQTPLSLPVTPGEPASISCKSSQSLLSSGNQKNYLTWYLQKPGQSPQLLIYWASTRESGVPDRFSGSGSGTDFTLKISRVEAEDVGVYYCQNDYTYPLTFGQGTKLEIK: 9.51

Request: # get_value(readout='pKd', item= M26 (antibody, V domains shown, complete MAb; FR4 is its own entry; also called H17/L5) VH: QVQLVQSGAEVKKPGASVKVSCKASGYTFITYWIEWVRQAPGQRLEWMGDILPGSGSTNYNENFKGRVTITRDTSASTAYMELSSLRSEDTAVYYCARSGYYGNSGFAYWGQGTLVTVSS VL: DIVMTQTPLSLSVTPGQPASISCKSSQSLLSSGNQKNYLTWYLQKPGQPPQLLIYWASTRESGVPDRFSGSGSGTDFTLKISRVEAEDVGVYYCQNDYTYPLTFGQGTKLEIK )
Result: 8.95

Request: Let us now turn to M1642 (antibody, V domains shown, complete MAb; FR4 is its own entry; also called H22/L369) VH: EVQLVQSGAEVKKPGESLRISCKGSGYTFITYWIEWVRQMPGKGLEWMGDILPGSGSTNYSPSFQGHVTISADKSISTAYLQWSSLKASDTAMYYCARSGYYGNSGFAYWGQGTLVTVSS VL: DIVMTQTPLSLPVTPGEPASISCKSSQSLLTSYNQRNYLTWYLQKPGQSPQLLIYWASTRESGVPDRFSGSGSGTDFTLKISRVEAEDVGVYYCQNDLTYPLTFGQGTKLEIK
Result: 9.02
